- TGT: Nuclear factor erythroid 2-related factor 2 (Mus musculus) (UniProt Q60795)
- Sequence (whole entry): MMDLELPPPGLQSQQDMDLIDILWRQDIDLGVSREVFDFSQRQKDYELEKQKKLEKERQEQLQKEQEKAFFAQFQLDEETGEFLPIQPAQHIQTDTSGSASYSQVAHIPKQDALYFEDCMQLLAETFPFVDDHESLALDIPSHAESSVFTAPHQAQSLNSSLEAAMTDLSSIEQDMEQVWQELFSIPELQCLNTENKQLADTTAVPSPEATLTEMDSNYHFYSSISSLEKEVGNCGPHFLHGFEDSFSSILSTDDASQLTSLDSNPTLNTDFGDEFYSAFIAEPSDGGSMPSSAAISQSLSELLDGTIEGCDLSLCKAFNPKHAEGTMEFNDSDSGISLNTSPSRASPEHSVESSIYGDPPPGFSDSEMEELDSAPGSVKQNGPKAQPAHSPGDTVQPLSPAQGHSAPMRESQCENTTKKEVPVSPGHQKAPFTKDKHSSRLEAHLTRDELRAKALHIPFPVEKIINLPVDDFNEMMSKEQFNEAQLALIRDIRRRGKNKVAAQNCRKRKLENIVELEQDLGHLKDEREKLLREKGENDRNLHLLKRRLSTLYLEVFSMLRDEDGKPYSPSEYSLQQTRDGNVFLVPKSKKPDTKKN
- ASSAY_COMMENT: Activation of Nrf2 in mouse Hepa1c1c7 cells assessed as induction of NQO1 production at 10 uM after 24 hrs by MTT colorimetric assay relative to control
- Format: cell-based
Let's look at some compounds and their measured fold change (FC).
# respond with the number and nothing more

Some entries whose results are on file:
STRUCTURE_STRING	EXPERIMENTAL_RESULT
NC(=O)c1cccc(-n2cc(-c3cccc(C(=O)O)c3)nn2)c1	1.07
NC(=O)c1ccc(-c2cn(-c3cccc(C(N)=O)c3)nn2)cc1	1.02
CN(C)c1cccc(-n2cc(-c3cccc([N+](=O)[O-])c3)nn2)c1	2.91

// query Item `O=C(O)c1ccc(-n2cc(-c3ccc([N+](=O)[O-])cc3)nn2)cc1` has what recorded fold change (FC)?
// result 0.99

// query Item `CCOc1cccc(-n2cc(-c3cccc(-c4nnn[nH]4)c3)nn2)c1` has what recorded fold change (FC)?
// result 1.31

// query Item `NC(=O)c1cccc(-n2cc(-c3cccc([N+](=O)[O-])c3)nn2)c1` has what recorded fold change (FC)?
// result 2.09

// query Item `NC(=O)c1cccc(-c2cn(-c3cccc([N+](=O)[O-])c3)nn2)c1` has what recorded fold change (FC)?
// result 2.06

// query Item `NC(=O)c1ccc(-n2cc(-c3ccc([N+](=O)[O-])cc3)nn2)cc1` has what recorded fold change (FC)?
// result 1.07

// query Item `O=C(O)c1cccc(-c2cn(-c3cccc([N+](=O)[O-])c3)nn2)c1` has what recorded fold change (FC)?
// result 0.85

// query Item `O=[N+]([O-])c1cccc(-c2cn(-c3cccc(I)c3)nn2)c1` has what recorded fold change (FC)?
// result 4

====

- TGT: Keap1/Nrf2 (Homo sapiens) (UniProt Q16236+Q14145)
- Sequence (Q14145 whole entry, looked up, the tested form may be a part): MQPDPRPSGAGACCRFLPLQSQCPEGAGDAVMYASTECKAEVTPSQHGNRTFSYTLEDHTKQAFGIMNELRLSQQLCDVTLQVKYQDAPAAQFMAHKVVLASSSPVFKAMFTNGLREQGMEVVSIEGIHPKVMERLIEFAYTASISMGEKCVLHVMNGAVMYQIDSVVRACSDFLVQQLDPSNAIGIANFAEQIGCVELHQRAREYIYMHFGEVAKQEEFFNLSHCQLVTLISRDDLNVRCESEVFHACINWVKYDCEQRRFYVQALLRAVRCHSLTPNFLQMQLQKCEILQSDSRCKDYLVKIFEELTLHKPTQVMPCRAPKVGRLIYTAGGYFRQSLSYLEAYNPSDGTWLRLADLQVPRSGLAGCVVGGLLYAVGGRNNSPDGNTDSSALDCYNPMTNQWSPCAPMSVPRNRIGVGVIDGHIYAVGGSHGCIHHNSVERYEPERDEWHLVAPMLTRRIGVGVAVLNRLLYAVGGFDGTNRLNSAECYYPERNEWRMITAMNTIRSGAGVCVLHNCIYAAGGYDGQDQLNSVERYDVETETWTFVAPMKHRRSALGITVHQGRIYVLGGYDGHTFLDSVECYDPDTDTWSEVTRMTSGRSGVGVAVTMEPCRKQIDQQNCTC
- Sequence (Q16236 whole entry, looked up, the tested form may be a part): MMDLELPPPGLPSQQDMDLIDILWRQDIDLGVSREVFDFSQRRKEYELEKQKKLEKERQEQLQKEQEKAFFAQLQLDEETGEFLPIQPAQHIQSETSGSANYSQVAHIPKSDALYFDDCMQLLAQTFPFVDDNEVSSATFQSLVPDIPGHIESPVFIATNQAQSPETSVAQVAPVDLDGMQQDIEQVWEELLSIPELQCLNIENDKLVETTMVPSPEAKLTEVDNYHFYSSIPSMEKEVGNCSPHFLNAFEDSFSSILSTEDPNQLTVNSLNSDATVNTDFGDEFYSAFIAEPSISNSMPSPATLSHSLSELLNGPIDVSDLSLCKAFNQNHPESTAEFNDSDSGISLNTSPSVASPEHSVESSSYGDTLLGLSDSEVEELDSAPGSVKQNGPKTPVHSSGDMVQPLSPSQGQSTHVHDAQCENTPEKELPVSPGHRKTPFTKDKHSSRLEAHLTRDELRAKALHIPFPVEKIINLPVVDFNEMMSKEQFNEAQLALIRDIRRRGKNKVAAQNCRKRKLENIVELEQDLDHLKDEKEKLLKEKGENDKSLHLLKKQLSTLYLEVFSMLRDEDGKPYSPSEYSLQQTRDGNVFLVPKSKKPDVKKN
- ASSAY_COMMENT: Inhibition of kelch domain of Keap1 (unknown origin) interaction to high affinity ETGE motif from Nrf2 unknown origin) at 100 uM by fluorescence polarization assay
- Type: protein assay
Let's look at some compounds and their measured inhibition.
Could you give me the number in %? Just the number is fine.

STRUCTURE_STRING	inhibition (%)
Cc1cccc(-n2cc(-c3cccc(-c4nnn[nH]4)c3)nn2)c1	30.4
O=C(O)c1cccc(-c2cn(-c3cccc(C(=O)O)c3)nn2)c1	82.3
N#Cc1cccc(-c2cn(-c3ccc(C(=O)O)cc3)nn2)c1	52.8

// query Item `N#Cc1cccc(-c2cn(-c3cccc([N+](=O)[O-])c3)nn2)c1` has what recorded inhibition?
// result 59.4

====

- TGT: Nuclear factor erythroid 2-related factor 2 (Mus musculus)
- ASSAY_COMMENT: Activation of Nrf2 in mouse Hepa1c1c7 cells assessed as induction of NQO1 production at 10 uM after 24 hrs by MTT colorimetric assay relative to control
- Assay type: cell-based
READOUT_TYPE: fold change (FC)
# respond with the number and nothing more

Some entries whose results are on file:
STRUCTURE_STRING	fold change (FC)
O=[N+]([O-])c1cccc(-n2cc(-c3cccc(-c4nnn[nH]4)c3)nn2)c1	1.75
CCOc1cccc(-n2cc(-c3cccc([N+](=O)[O-])c3)nn2)c1	2.48

// query Item `O=C(O)c1ccc(-c2cn(-c3ccc([N+](=O)[O-])cc3)nn2)cc1` has what recorded fold change (FC)?
// result 0.89

// query Item `O=[N+]([O-])c1cccc(-c2cn(-c3cccc(F)c3)nn2)c1` has what recorded fold change (FC)?
// result 2.27

// query Item `NC(=O)c1ccc(-n2cc(-c3cccc(C(=O)O)c3)nn2)cc1` has what recorded fold change (FC)?
// result 0.91

// query Item `NC(=O)c1cccc(-c2cn(-c3ccc(C(=O)O)cc3)nn2)c1` has what recorded fold change (FC)?
// result 0.81

// query Item `Cc1cccc(-n2cc(-c3cccc(-c4nnn[nH]4)c3)nn2)c1` has what recorded fold change (FC)?
// result 0.88

// query Item `O=[N+]([O-])c1cccc(-c2cn(-c3ccc4c(c3)OCO4)nn2)c1` has what recorded fold change (FC)?
// result 2.24

// query Item `CC(C)(C)c1cccc(-n2cc(-c3cccc([N+](=O)[O-])c3)nn2)c1` has what recorded fold change (FC)?
// result 1.93

// query Item `N#Cc1cccc(-c2cn(-c3ccc(C(=O)O)cc3)nn2)c1` has what recorded fold change (FC)?
// result 0.98

// query Item `N#Cc1cccc(-c2cn(-c3cccc(I)c3)nn2)c1` has what recorded fold change (FC)?
// result 1.53

====

- TGT: Nuclear factor erythroid 2-related factor 2 (Mus musculus)
- ASSAY_COMMENT: Activation of Nrf2 in mouse Hepa1c1c7 cells assessed as induction of NQO1 production at 10 uM after 24 hrs by MTT colorimetric assay relative to control
- Type: cell-based
Field: label. Allowed values: criterion met (fold change (FC) < 2) or criterion not met (fold change (FC) >= 2).

Observe how each entry below is paired with its result.
STRUCTURE_STRING	LABEL
NC(=O)c1cccc(-n2cc(-c3ccc(C(=O)O)cc3)nn2)c1	criterion met
Ic1cccc(-n2cc(-c3cccc(-c4nnn[nH]4)c3)nn2)c1	criterion met

// query Find out if reported fold change (FC) for `N#Cc1cccc(-n2cc(-c3cccc([N+](=O)[O-])c3)nn2)c1` is less than 2
// result criterion not met

// query Find out if reported fold change (FC) for `N#Cc1cccc(-c2cn(-c3cccc(C#N)c3)nn2)c1` is less than 2
// result criterion met

// query Find out if reported fold change (FC) for `O=[N+]([O-])c1cccc(-c2cn(-c3cccc(C(F)(F)F)c3)nn2)c1` is less than 2
// result criterion not met

// query Find out if reported fold change (FC) for `O=[N+]([O-])c1ccc(-c2cn(-c3ccc([N+](=O)[O-])cc3)nn2)cc1` is less than 2
// result criterion met

// query Find out if reported fold change (FC) for `O=C(O)c1cccc(-c2cn(-c3ccc([N+](=O)[O-])cc3)nn2)c1` is less than 2
// result criterion met

====

- TGT: Nuclear factor erythroid 2-related factor 2 (Mus musculus) (UniProt Q60795)
- ASSAY_COMMENT: Activation of Nrf2 in mouse Hepa1c1c7 cells assessed as induction of NQO1 production at 10 uM after 24 hrs by MTT colorimetric assay relative to control
- Format: cell-based
READOUT_TYPE: fold change (FC)
# respond with the number and nothing more

Some entries whose results are on file:
STRUCTURE_STRING	fold change (FC)
O=[N+]([O-])c1cccc(-c2cn(-c3cccc(Cl)c3)nn2)c1	2.5
O=C(O)c1ccc(-c2cn(-c3cccc([N+](=O)[O-])c3)nn2)cc1	1.06
c1cc(-c2cn(-c3cccc(-c4nnn[nH]4)c3)nn2)cc(-c2nnn[nH]2)c1	0.84
O=C(O)c1ccc(-c2cn(-c3cccc(C(=O)O)c3)nn2)cc1	0.47
O=[N+]([O-])c1ccc(-c2cn(-c3cccc([N+](=O)[O-])c3)nn2)cc1	1.81
Clc1cccc(-n2cc(-c3cccc(-c4nnn[nH]4)c3)nn2)c1	1.24

// query Item `O=C(O)c1cccc(-c2cn(-c3cccc(C(=O)O)c3)nn2)c1` has what recorded fold change (FC)?
// result 0.86

// query Item `NC(=O)c1cccc(-n2cc(-c3ccc([N+](=O)[O-])cc3)nn2)c1` has what recorded fold change (FC)?
// result 0.98

// query Item `O=[N+]([O-])c1cccc(-c2cn(-c3cccc(Br)c3)nn2)c1` has what recorded fold change (FC)?
// result 2.94

// query Item `NC(=O)c1cccc(-c2cn(-c3cccc(C(=O)O)c3)nn2)c1` has what recorded fold change (FC)?
// result 0.71
